The reported numbers originate from ChEMBL document CHEMBL1153581.

procedure details: Cytotoxicity against Varicella Zoster Virus infected human […] cells assessed as change in cell morphology
Type: cell-based
parameter measured: CC50

Give the measured CC50 of Nc1ccn(C[C@@H](CO)OCP(=O)(O)O)c(=O)n1.O.O . > 50 µg/mL

Another molecule to check: C=CCNC(=S)Nc1ccc(NS(C)(=O)=O)c(Oc2ccccc2)c1 > 100 µg/mL

Another molecule to check: CS(=O)(=O)Nc1ccc(NC(=S)NC2CCCCC2)cc1Oc1ccccc1 ≥ 4 µg/mL

Another molecule to check: CCNC(=S)Nc1ccc(NS(C)(=O)=O)c(Oc2ccccc2)c1 > 100 µg/mL

Another molecule to check: CS(=O)(=O)Nc1ccc(NC(=S)NCc2ccccc2)cc1Oc1ccccc1 20 µg/mL

Another molecule to check: Nc1nc2c(ncn2COC(CO)CO)c(=O)[nH]1 > 50 µg/mL

Another molecule to check: CS(=O)(=O)Nc1ccc(NC(=S)NCCc2ccccc2)cc1Oc1ccccc1 ≥ 100 µg/mL

Another molecule to check: CS(=O)(=O)Nc1ccc(NC(=S)Nc2ccc([N+](=O)[O-])cc2)cc1Oc1ccccc1 100 µg/mL

Another molecule to check: CCCNC(=S)Nc1ccc(NS(C)(=O)=O)c(Oc2ccccc2)c1 100 µg/mL
